# key: entry, value: IC50
# System: PC-9 cells (EGFR Ex19Del)
# Experimental Protocol: Potency Assay: pERK (SOS1 pERK IC50 Assay, AlphaLISA SureFire Ultra p-ERK1/2)
# Format: cell-based
# Cond: Homo sapiens; PC-9 cells (EGFR Ex19Del), 1 hour incubation, AlphaLISA p-ERK1/2; read-out: SOS1 pERK IC50

Sample answers from the record:
# Compound, Assay Result
rows = [
    ("COC1CN([C@@H]2CCc3ncnc(N[C@H](C)c4cccc(C(F)F)c4F)c3C2)C1", "> 1000 nM"),
    ("C[C@@H](Nc1nc(Cl)nc2c1CN(C(=O)N1CCNc3ccccc31)C2)c1cccc(C(F)(F)F)c1", "< 1000 nM"),
]

# input for lookup
// field: IC50; key: C[C@@H](Nc1nc(Cl)nc2c1CN(C(=O)N1CCNC(C(F)(F)F)C1)C2)c1cccc(C(F)F)c1F (stereo partly drawn) ; value = < 1000 nM

----------
# Tested on: PC-9 cells (EGFR Ex19Del)
# Experimental Protocol: Potency Assay: pERK (SOS1 pERK IC50 Assay, AlphaLISA SureFire Ultra p-ERK1/2)
# Type: cell-based
# Cond: Homo sapiens; PC-9 cells (EGFR Ex19Del), 1 hour incubation, AlphaLISA p-ERK1/2; read-out: SOS1 pERK IC50
Endpoint: IC50

# count of solved cases: 8
# Compound, System Name, IC50
rows = [
    ("COC1(C(=O)N2Cc3nc(Cl)nc(N[C@H](C)c4cccc(C(F)F)c4F)c3C2)CN(C)C1", "PC-9 cells (EGFR Ex19Del)", "< 1000 nM"),
    ("C[C@@H](Nc1nc(Cl)nc2c1CN(C(=O)N1C3CC1CN(C1COC1)C3)C2)c1cccc(C(F)F)c1F", "PC-9 cells (EGFR Ex19Del)", "< 1000 nM"),
    ("C[C@@H](Nc1nc(Cl)nc2c1CN(C(=O)N1CCNCC1)C2)c1cc(N)cc(C(F)(F)F)c1", "PC-9 cells (EGFR Ex19Del)", "< 1000 nM"),
    ("CC(Nc1nc(Cl)nc2c1CN(C(=O)N1CCOCC1)C2)c1cccc2c1OCCC2(F)F (stereo not drawn)", "PC-9 cells (EGFR Ex19Del)", "> 1000 nM"),
    ("C[C@@H](Nc1nc(Cl)nc2c1CN(S(=O)(=O)C1CNC1)C2)c1cc(N)cc(C(F)(F)F)c1", "PC-9 cells (EGFR Ex19Del)", "> 1000 nM"),
    ("CC(Nc1nc(Cl)nc2c1CN(C(=O)N1CCOCC1)C2)c1cccc(C(F)(F)F)c1Cl (stereo not drawn)", "PC-9 cells (EGFR Ex19Del)", "< 1000 nM"),
    ("C[C@@H](Nc1nc(Cl)nc2c1CN(C(=O)C1(F)CCOCC1)C2)c1cc(N)cc(C(F)(F)F)c1", "PC-9 cells (EGFR Ex19Del)", "< 1000 nM"),
    ("C[C@@H](Nc1nc(Cl)nc2c1CN(S(=O)(=O)N1CC3CCC(C1)O3)CC2)c1cc(N)cc(C(F)(F)F)c1", "PC-9 cells (EGFR Ex19Del)", "< 1000 nM"),
]

Entry `COc1nccnc1C(=O)N1CCc2nc(Cl)nc(N[C@H](C)c3cc(N)cc(C(F)(F)F)c3)c2C1` , PC-9 cells (EGFR Ex19Del) data, IC50 value: > 1000 nM

Where do the numbers come from? From patent US20230096028A1.
